Data credit: patent US9732093B2

- experimental target: human FLAP (Homo sapiens (Human), UniProt P20292)
- Sequence (P20292 whole entry): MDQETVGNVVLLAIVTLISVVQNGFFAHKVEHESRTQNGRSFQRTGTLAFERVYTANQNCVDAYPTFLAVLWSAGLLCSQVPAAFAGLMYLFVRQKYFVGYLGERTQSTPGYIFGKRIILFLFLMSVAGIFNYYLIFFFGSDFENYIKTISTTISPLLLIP
- assay name: FLAP binding assay (HTRF format)
- test context: human FLAP-containing membranes, HTRF ligand 25 nM, 2 h; average of two plates, duplicates; read-out: FLAP Binding wild type HTRF Ki
As shown below, each of these molecules has a reported Ki value.
Provide only the numeric value, understood in µM.

[ask] Answer with reported Ki of `Fc1c(-c2cnc3[nH]ccc3n2)ccc(C2CCC2)c1OCc1ccccc1`
[reply] 0.354

[ask] Answer with reported Ki of CC(C)(C)c1ccc(-c2cnc(N)nc2)c(F)c1O [Intermediate H]
[reply] 0.0723

Continuing:
[ask] Answer with reported Ki of CC(C)(C)c1ccc(-c2cnc(N)cn2)c(F)c1O [Intermediate G]
[reply] 0.0779

* * *

- Tested on: leukotriene pathway in human whole blood
- assay name: Human whole blood assay (LTB4 levels after A23187 stimulation)
- Type: cell-based
- test context: human whole blood diluted 1:1 in RPMI, A23187 stimulation; Table 6 (additional runs)
Where a name gives a salt, the structure may show the parent alone.
endpoint label: pIC50
On this scale, pIC50 is minus log10 of a concentration expressed in M (mol/L).

Would you please look over these solved cases?
[ask] Answer with reported pIC50 of Nc1cnc(-c2ccc(C3CCC3)c(OCCNc3ncccn3)c2F)cn1 [Example 296, trifluoroacetic acid salt]
[reply] 6.55

[ask] Answer with reported pIC50 of `Fc1c(-c2cnc3c(c2)OCCN3)ccc(C2CCC2)c1Oc1ncccn1`
[reply] 6.54

[ask] Answer with reported pIC50 of `Nc1ncc(-c2ccc(C3CCCC3)c(Oc3ncccn3)c2F)cn1`
[reply] 7.28

Continuing:
[ask] Answer with reported pIC50 of N#Cc1cccnc1COc1c(C2CCC2)ccc(-c2cnc(N)cn2)c1F [Example 286, trifluoroacetic acid salt]
[reply] 5.93

[ask] Answer with reported pIC50 of Nc1ncc(-c2ccc(C3CCC3)c(O)c2F)cn1 [Intermediate E]
[reply] 5.96

[ask] Answer with reported pIC50 of `Nc1cnc(-c2ccc(C3CCC3)c(OCc3ccc(-c4cnc(N)nc4)cc3)c2F)cn1`
[reply] 6.91

[ask] Answer with reported pIC50 of COC(=O)c1coc(COc2c(C3CCC3)ccc(-c3cnc(N)cn3)c2F)n1 [Example 281, trifluoroacetic acid salt]
[reply] 6.34

* * *

- experimental target: human FLAP (Homo sapiens (Human))
- assay name: FLAP binding assay (HTRF format)
- test context: human FLAP wild type membranes, HTRF format; Table 6 (additional runs)
As shown below, each of these molecules has a reported pKi value.
On this scale, pKi is minus log10 of a concentration expressed in M (mol/L).

[ask] Answer with reported pKi of Nc1cnc(-c2ccc(C3CCC3)c(OCC3CC3)c2F)cn1 [Example 72]
[reply] 7.63

Continuing:
[ask] Answer with reported pKi of COc1c(C2CCC2)ccc(-c2cnc(N)cn2)c1F [A]
[reply] 7.28

[ask] Answer with reported pKi of Nc1cnc(-c2ccc(C3CCC3)c(Oc3ccnc(Cl)n3)c2F)cn1 [Example 137]
[reply] 8.37

[ask] Answer with reported pKi of Nc1cnc(-c2ccc(C3CCC3)c(Oc3cncnc3)c2F)cn1 [Example 349]
[reply] 7.51

[ask] Answer with reported pKi of Nc1cnc(-c2ccc(C3CCC3)c(Oc3ncccc3Cl)c2F)cn1 [Example 122]
[reply] 8.43

[ask] Answer with reported pKi of CCc1ccc(-c2cnc(N)cn2)c(F)c1Oc1ncccn1 [Example 316]
[reply] 5.86

[ask] Answer with reported pKi of NC(=O)c1ccccc1COc1c(C2CCC2)ccc(-c2cnc(N)cn2)c1F [Compound 19]
[reply] 8.42

[ask] Answer with reported pKi of Nc1cnc(-c2ccc(C3CCC3)c(OCc3ccc(C(=O)O)cc3)c2F)cn1 [Compound 5]
[reply] 7.99

[ask] Answer with reported pKi of NC(=O)c1cccc(COc2c(C3CCC3)ccc(-c3cnc(N)cn3)c2F)c1 [Compound 17]
[reply] 7.90

[ask] Answer with reported pKi of Nc1cnc(-c2ccc(C3CCC3)c(Oc3ccnc(C(F)(F)F)n3)c2F)cn1 [Example 124]
[reply] 8.55

[ask] Answer with reported pKi of Nc1cnc(-c2ccc(C3CCC3)c(OCc3ccccc3)c2F)cn1 [Example 83]
[reply] 7.35

[ask] Answer with reported pKi of Nc1cnc(-c2ccc(C3CCC3)c(O)c2F)cn1 [B]
[reply] 7.08

[ask] Answer with reported pKi of Nc1cnc(-c2ccc(C3CCC3)c(OCc3ccc(C(F)(F)F)cc3)c2F)cn1 [Compound 1]
[reply] 7.20

[ask] Answer with reported pKi of Nc1cnc(-c2ccc(C3CCC3)c(OCc3ccc(F)cc3)c2F)cn1 [Compound 28]
[reply] 7.18

[ask] Answer with reported pKi of Nc1cnc(-c2ccc(C3CCC3)c(Oc3ccc(C(=O)O)cn3)c2F)cn1 [Example 154]
[reply] 7.75

[ask] Answer with reported pKi of CC(C)(C)OC(=O)N1CCC(COc2c(C3CCC3)ccc(-c3cnc(N)cn3)c2F)CC1 [Example 74]
[reply] 6.76

[ask] Answer with reported pKi of Nc1cnc(-c2ccc(C3CCC3)c(Oc3ncccc3C(F)(F)F)c2F)cn1 [Example 121]
[reply] 8.14

[ask] Answer with reported pKi of Nc1cnc(-c2ccc(C3CCC3)c(Oc3cccc(C(F)(F)F)n3)c2F)cn1 [Example 102]
[reply] 8.74

[ask] Answer with reported pKi of CC(C)(C)c1ccc(-c2cnc3[nH]ccc3c2)c(F)c1Oc1ncccn1 [Example 351]
[reply] 7.26

[ask] Answer with reported pKi of N#Cc1ccc(Oc2c(C3CCC3)ccc(-c3cnc(N)cn3)c2F)cn1 [Example 108]
[reply] 7.55

[ask] Answer with reported pKi of Nc1cnc(-c2ccc(C3CCCC3)c(Oc3nccc(N)n3)c2F)cn1 [Example 336]
[reply] 8.41

[ask] Answer with reported pKi of CC(C)(C)OC(=O)N1CCCC(COc2c(C3CCC3)ccc(-c3cnc(N)cn3)c2F)C1 (stereo not shown) [Example 249]
[reply] 6.55

[ask] Answer with reported pKi of Nc1cnc(-c2ccc(C3CCC3)c(OCc3cccc(C(F)(F)F)c3)c2F)cn1 [Compound 2]
[reply] 7.06

[ask] Answer with reported pKi of Nc1cnc(-c2ccc(C3CCC3)c(OCc3cccc(C(=O)O)c3)c2F)cn1 [Compound 4]
[reply] 8.24

[ask] Answer with reported pKi of CC(C)c1ccnc(Oc2c(C3CCC3)ccc(-c3cnc(N)cn3)c2F)n1 [Example 90]
[reply] 7.27

[ask] Answer with reported pKi of Nc1cnc(-c2ccc(C3CCC3)c(OCc3ccccc3F)c2F)cn1 [Compound 30]
[reply] 7.47
